# Test system: OVCAR-5
# Protocol: NCI tumour cell line growth inhibition, 48 h
The source made the active and inactive calls. No stated cut-off is given here; in the data, active = GI50 up to about 1.1 µM and inactive = higher.
# reported GI50; entries follow

Given the molecule Cc1cc(NC(=O)NC(=O)c2ccccc2[N+](=O)[O-])ccc1Oc1ncc(Cl)cn1 , what is its reported GI50?
16.5 µM (inactive)

Query Cc1cc2oc(=O)c(Cl)c(Cl)c2c(C)c1Cl next
12.1 µM (inactive)

Query OC1CCCCCCCCCCC1SCCCCl (stereo not given) next
> 100 µM (inactive)

Query Cc1ccc(NC(=O)/C(=N/N(C)C)C(C2OC(=O)c3ccccc32)[N+](=O)[O-])cc1 (stereo not given) next
> 100 µM (inactive)

Query CSc1nc(NC2OC(COC(C)=O)C(OC(C)=O)C(OC(C)=O)C2OC(C)=O)c2c(OC(C)=O)c(C)c(=O)oc2n1 (stereo not given) next
> 100 µM (inactive)

Query COc1ccc(C2c3cc4c(cc3OC(NCCO)C2C)OCO4)cc1 (stereo not given) next
39.7 µM (inactive)

* * *

# reported GI50; entries follow
# Tested on: SK-MEL-2
# Protocol: NCI tumour cell line growth inhibition, 48 h
Active and inactive are the calls of the source. No stated cut-off is given here; in the data, active = GI50 up to about 1.1 µM and inactive = higher.

Some molecules with known GI50 results, for comparison:
1) CCc1ccccc1NC(=O)C(=O)C1C(=O)N(c2ccccc2)N=C1N (stereo unspecified)
> 100 µM (inactive)
2) CC(=O)Nc1ccc(/C=C2/NC(=S)N(/C=C3\C(=O)Oc4ccccc4C3=O)C2=O)cc1
40.9 µM (inactive)
3) C=CCC12CC(=O)C=C1CCC1(C2)OCCO1 (stereo unspecified)
> 100 µM (inactive)
4) CN(C)/C=N\c1nncc2[nH]cnc12
> 100 µM (inactive)
5) C/C=C/C(C#N)(/C=C/c1ccccc1)OP1(=O)OC(c2ccccc2)C(C)N1C (stereo unspecified)
18.6 µM (inactive)

Given the molecule Cc1c(C(=O)O)n(C)c(=O)n(C)c1=O , what is its reported GI50?
> 100 µM (inactive)

Query CCCCCCCCCCCC(=O)c1c(O)cc(C)oc1=O next
56.4 µM (inactive)

Query C/C=C/COc1cc(NC(=S)OC(C)C)ccc1Cl.C/C=C\COc1cc(NC(=S)OC(C)C)ccc1Cl next
13.6 µM (inactive)

* * *

# System: RXF 393
# Protocol: NCI tumour cell line growth inhibition, 48 h
Activity calls are given as the source filed them. Cut-off read from the data, not from the text of the source: active = GI50 up to about 1.1 µM and inactive = higher.
Lab note: assign the record to one of true (active), false (inactive)

1. CC(Cc1ccc(O)cn1)(NC(=O)c1ccccc1)C(=O)O (configuration not stated)
false
2. OC1CCCCCCCCCCC1SCCCCl (configuration not stated)
false
3. CCc1ccccc1NC(=O)C(=O)C1C(=O)N(c2ccccc2)N=C1N (configuration not stated)
false
4. COc1cccc2c1C(=O)c1c(O)c3c(c(O)c1C2=O)C[C@@](O)(C(=O)CO)C[C@@H]3OC1CC2C(OCN3CN2COC2C(C)OC(O[C@H]4C[C@](O)(C(=O)CO)Cc5c(O)c6c(c(O)c54)C(=O)c4c(OC)cccc4C6=O)CC23)C(C)O1 (some centres not stated)
true
5. N#CC(=S)Nc1ccc(Cl)c(Cl)c1
false
6. N#Cc1c(O)c(C=O)c(=O)n2c1[nH]c1ccccc12
false
7. COc1cccc(N2C(=O)C3C4C=C5c6ccccc6N(c6ccccc6)C5(C3C2=O)[C@H]2C(=O)N(c3cccc(OC)c3)C(=O)[C@@H]42)c1 (some centres not stated)
false
8. CC1=NN(C(=O)c2ccccc2O)C(=O)/C1=C/c1c(O)ccc2ccccc12
true
9. O=C(NCCCl)NCc1ccccc1
false
10. O/N=C1\CSc2ccccc2C1
false

Query molecule follows.
// outcome(item) with item = CN1C/C(=C\c2ccc(Cl)cc2)C(=O)/C(=C/c2ccc(Cl)cc2)C1
true

* * *

# System: HCT-116
# Protocol: NCI tumour cell line growth inhibition, 48 h
Activity calls are given as the source filed them. Rule as the data show it: active = GI50 up to about 1.1 µM and inactive = higher.
Value type: GI50

1. NC1=NN(c2ccccc2)C(=O)C1C(=O)C(=O)NC1C2CC3CC(C2)CC1C3 (stereo not given)
> 100 µM (inactive)
2. N#Cc1c(O)c(C=O)c(=O)n2c1[nH]c1ccccc12
> 100 µM (inactive)
3. Cc1ccc(C(=O)Nc2ccc(CP(=O)(O)O)cc2CP(=O)(O)O)cc1NC(=O)c1cccc(N)c1
> 100 µM (inactive)
4. C/C(=N\NC(=O)CC(=O)N(C(=O)c1ccc(Cl)cc1)c1ccc(C)cc1)c1ccccc1O
62.2 µM (inactive)
5. CC1=CC(=O)/C(=C/N2CCNC2=S)C(=O)O1
> 100 µM (inactive)

Given the molecule CCOC(=O)/C(=C\NC(C)(C)C)c1nc2ccccc2o1 , what is its reported GI50?
37.3 µM (inactive)

Query O=C(Cc1ccccc1)N/N=C(/CCN1CCCC1)CC(c1ccccc1)c1c(O)c2ccccc2oc1=O (stereo not given) next
80.2 µM (inactive)

Query COc1cccc(N2C(=O)C3C4C=C5c6ccccc6N(c6ccccc6)C5(C3C2=O)[C@H]2C(=O)N(c3cccc(OC)c3)C(=O)[C@@H]42)c1 (stereo not given in full) next
> 100 µM (inactive)

Query O=C1NC(=O)C(CCO)(c2ccccc2)C(=O)N1 next
> 100 µM (inactive)

Query O=C(NCCCl)NCc1ccccc1 next
> 100 µM (inactive)

* * *

# Test system: HCT-15
Value type: GI50

1) CCOC(=O)C1Cc2c(ccc(OC)c2OC)C(=O)C1N (stereo unspecified)
> 100 µM
2) O=C1NC(=O)C(CCO)(c2ccccc2)C(=O)N1
> 100 µM
3) Cc1ccc(-n2c(C)nc3c2C(=O)c2ccccc2C3=O)cc1
7.53 µM

Given the compound Cc1cccc(NC(=O)/C(=N\NC(C)(C)C)C2NC(=S)NC2=O)c1C (stereo unspecified) , what is its reported GI50?
> 100 µM

Query COC(=O)c1[nH]c(=S)[nH]c(=O)c1-c1ccc(Cl)cc1 next
> 50 µM

Query c1ccc2c(c1)CC1COc3ccccc3C1O2 (stereo unspecified) next
40.2 µM

Query N#Cc1nc(C(=O)c2ccccc2)oc1N next
> 100 µM

Query CN(C)CCOc1ccc2c(c1)C/C(=C/c1ncc([N+](=O)[O-])n1C)C2=O next
0.377 µM

* * *

# Test system: OVCAR-4
# Protocol: NCI tumour cell line growth inhibition, 48 h
The source made the active and inactive calls. Rule as the data show it: active = GI50 up to about 1.1 µM and inactive = higher.
Lab note: assign the record to one of active, inactive

1) O=[N+]([O-])c1cccc2nccc(NCC(O)CO)c12 (stereo unspecified)
inactive

// outcome(item) with item = C/C(=N\Nc1nc2ccccc2s1)c1ccncn1
inactive

Query N=C(N)SC(c1ccccc1)c1ccccc1 next
inactive

Query N[C@H](C(=O)O)[C@@H]1CC(Br)=NO1 next
inactive

Query CC[N+](C)(C)c1ccc(C(=C2C=CC(=[N+](C)C)C=C2)c2ccc(N(C)C)cc2)cc1 next
inactive

Query O=C(NNC(=O)c1ccccc1O)c1cccc(Br)c1 next
inactive

Query O=c1c2ccccc2[nH]c2c(Cl)cc(Cl)c(N3CCCCC3)c12 next
inactive

* * *

# System: SW-620
# Protocol: NCI tumour cell line growth inhibition, 48 h
Activity calls are given as the source filed them. Cut-off read from the data, not from the text of the source: active = GI50 up to about 1.1 µM and inactive = higher.
Lab note: assign the record to one of active, inactive

Would you please look over these solved cases?
1. O=[N+]([O-])c1cccc2nccc(NCC(O)CO)c12 (centres undefined)
inactive
2. Cn1[nH]nn/c1=N\N=C\c1ccccc1
inactive
3. CCCCN(C(=O)c1ccccc1)C1CCC(=O)c2[nH]c3ccccc3c21 (centres undefined)
inactive
4. CC1=C(O)C(=O)C2C(=O)C1C(C)C2c1ccccc1 (centres undefined)
inactive

// outcome(item) with item = CCCCCCC1OC23OC1CCC2C(O)CCC3O (centres undefined)
inactive

Query Cc1ccc(-n2c(C)nc3c2C(=O)c2ccccc2C3=O)cc1 next
inactive

Query [N-]=[N+]=Nc1ccc(NCCCCCC(=O)ON2C(=O)CCC2=O)c([N+](=O)[O-])c1 next
inactive

* * *

# System: IGROV-1
# Protocol: NCI tumour cell line growth inhibition, 48 h
The source made the active and inactive calls. No stated cut-off is given here; in the data, active = GI50 up to about 1.1 µM and inactive = higher.
Value type: GI50

Given the molecule O=c1c2cc(S(=O)(=O)Nc3ccc(Cl)cc3Cl)ccc2ncn1NS(=O)(=O)c1cccc2ccccc12 , what is its reported GI50?
20.7 µM (inactive)

Query COc1ccc2c(c1)C(=O)Cc1ccccc1CC2 next
> 100 µM (inactive)

Query CC(=O)/C(=C\c1ccccc1O)C(=O)Nc1ccccc1C next
25.9 µM (inactive)

Query COc1ccccc1-n1c(NN)nc2ccc(Br)cc2c1=O next
38.2 µM (inactive)

Query COc1ccc(NC(=O)CSc2nnc(-c3ccc(NC(C)=O)cc3)o2)cc1 next
15.5 µM (inactive)

* * *

# reported GI50; entries follow
# System: T47D
# Protocol: NCI tumour cell line growth inhibition, 48 h
Active and inactive are the calls of the source. Cut-off read from the data, not from the text of the source: active = GI50 up to about 1.1 µM and inactive = higher.

Given the compound CN(C)c1ccc(/C=C(\NC(=O)c2ccccc2)C(=O)Nc2cccc(C(=O)NCCCO)c2)cc1 , what is its reported GI50?
> 100 µM (inactive)

Query N=c1oc2ccc(Cl)cc2cc1C(=O)NCc1ccccc1 next
39 µM (inactive)

Query O=C(O)C1CC(O)CN1 (configuration not stated) next
> 100 µM (inactive)

Query CCC(C)c1cnc(CC(C)C)c(=O)[nH]1 (configuration not stated) next
> 100 µM (inactive)

Query c1ccc2c(c1)CC1COc3ccccc3C1O2 (configuration not stated) next
51.4 µM (inactive)

Query CCCCCCCCCCCC(=O)c1c(O)cc(C)oc1=O next
34.8 µM (inactive)

Query Cc1cc2oc(C)c(S(=O)(=O)NC(=O)Nc3ccc(Cl)cc3)c(=O)c2c(=O)o1 next
> 100 µM (inactive)
